// data source = ChEMBL document CHEMBL1138483

system: Hepatitis C virus; assay: Antiviral activity against HCV replication in human hepatoma cells by replicon assay; format: functional, Hepacivirus hominis
# note: exactly 200 nM is not below, so it is Condition not met; use Condition met for EC90 strictly under it

MOLECULE	CATEGORY_LABEL
C#CCCC(NC(=O)[C@@H]1[C@@H]2[C@H](CN1C(=O)[C@@H](NC(=O)N[C@H](COC(=O)NC(C)C)C(C)(C)C)C1(C)CCCCC1)C2(C)C)C(=O)C(=O)NCC=C (stereo partly specified)	Condition met
CCNC(=O)OC[C@@H](NC(=O)N[C@H](C(=O)N1C[C@H]2[C@@H]([C@H]1C(=O)NC(CC1CCC1)C(=O)C(N)=O)C2(C)C)C(C)(C)C)C(C)(C)C (stereo partly specified)	Condition not met
C#CCCC(NC(=O)[C@@H]1[C@@H]2[C@H](CN1C(=O)[C@@H](NC(=O)N[C@H](COC(=O)NCC)C(C)(C)C)C1Cc3ccccc3C1)C2(C)C)C(=O)C(=O)NCC=C (stereo partly specified)	Condition not met
C=CCNC(=O)C(=O)C(CCC)NC(=O)[C@@H]1[C@@H]2[C@H](CN1C(=O)[C@@H](NC(=O)N[C@H](COC(=O)NCC)C(C)(C)C)C1Cc3ccccc3C1)C2(C)C (stereo partly specified)	Condition not met
C=CCNC(=O)C(=O)C(CCC)NC(=O)[C@@H]1[C@@H]2[C@H](CN1C(=O)[C@@H](NC(=O)N[C@H](COC(=O)NC(C)C)C(C)(C)C)C1(C)CCCCC1)C2(C)C (stereo partly specified)	Condition met
C#CCCC(NC(=O)[C@@H]1[C@@H]2[C@H](CN1C(=O)[C@@H](NC(=O)NC1(COC(=O)NCC)CCCCC1)C1(C)CCCCC1)C2(C)C)C(=O)C(=O)NCC=C (stereo partly specified)	Condition not met

###

assay: Binding affinity to HCV NS3 protease by spectrophotometry; set-up: species or system Hepacivirus hominis
Below: a set of entries, each annotated with reported Ki.
QUANTITY_NAME: Ki (µM)

COMPOUND	READOUT_UNITS	NUMERIC_RESULT
C=CCNC(=O)C(=O)C(CCC)NC(=O)[C@@H]1[C@@H]2[C@H](CN1C(=O)[C@@H](NC(=O)N[C@H](COC(=O)NCC1CCCCC1)C(C)(C)C)C1(C)CCCCC1)C2(C)C (stereo partly specified)	µM	0.13
CCNC(=O)OC[C@@H](NC(=O)N[C@H](C(=O)N1C[C@H]2[C@@H]([C@H]1C(=O)NC(CC1CCC1)C(=O)C(N)=O)C2(C)C)C1Cc2ccccc2C1)C(C)(C)C (stereo partly specified)	µM	0.007
COC[C@@H](NC(=O)N[C@H](C(=O)N1C[C@H]2[C@@H]([C@H]1C(=O)NC(CC1CCC1)C(=O)C(N)=O)C2(C)C)C1(C)CCCC1)C(C)(C)C (stereo partly specified)	µM	0.022
CCC[C@@](C)(COC)NC(=O)N[C@H](C(=O)N1C[C@H]2[C@@H]([C@H]1C(=O)NC(CC1CCC1)C(=O)C(N)=O)C2(C)C)C1(C)CCCCC1 (stereo partly specified)	µM	0.17
C=CCNC(=O)C(=O)C(CCCC)NC(=O)[C@@H]1[C@@H]2[C@H](CN1C(=O)[C@@H](NC(=O)N[C@H](COC(=O)NCC)C(C)(C)C)C1Cc3ccccc3C1)C2(C)C (stereo partly specified)	µM	0.023
COC[C@@H](NC(=O)N[C@H](C(=O)N1C[C@H]2[C@@H]([C@H]1C(=O)NC(CC1CCC1)C(=O)C(N)=O)C2(C)C)C1CCCCC1)C(C)(C)C (stereo partly specified)	µM	0.03
CCNC(=O)OC[C@@H](NC(=O)N[C@H](C(=O)N1C[C@H]2[C@@H]([C@H]1C(=O)NC(CC1CC1)C(=O)C(N)=O)C2(C)C)C1Cc2ccccc2C1)C(C)(C)C (stereo partly specified)	µM	0.007
C#CCCC(NC(=O)[C@@H]1[C@@H]2[C@H](CN1C(=O)[C@@H](NC(=O)N[C@H](COC(=O)NCC1CC1)C(C)(C)C)C1(C)CCCCC1)C2(C)C)C(=O)C(=O)NCC=C (stereo partly specified)	µM	0.007
CN(C)C(=O)OC[C@@H](NC(=O)N[C@H](C(=O)N1C[C@H]2[C@@H]([C@H]1C(=O)NC(CC1CCC1)C(=O)C(N)=O)C2(C)C)C1Cc2ccccc2C1)C(C)(C)C (stereo partly specified)	µM	0.023
CNC(=O)OC[C@@H](NC(=O)N[C@H](C(=O)N1C[C@H]2[C@@H]([C@H]1C(=O)NC(CC1CCC1)C(=O)C(N)=O)C2(C)C)C1Cc2ccccc2C1)C(C)(C)C (stereo partly specified)	µM	0.009
CCNC(=O)OC[C@@H](NC(=O)N[C@H](C(=O)N1C[C@H]2[C@@H]([C@H]1C(=O)NC(CC1CCC1)C(=O)C(N)=O)C2(C)C)C(C)(C)C)C(C)(C)C (stereo partly specified)	µM	0.009
COC[C@@H](NC(=O)N[C@H](C(=O)N1C[C@H]2[C@@H]([C@H]1C(=O)NC(CC1CCC1)C(=O)C(N)=O)C2(C)C)C1(C)CCCCC1)C(C)(C)C (stereo partly specified)	µM	0.024
CC(C)NC(=O)OC[C@@H](NC(=O)N[C@H](C(=O)N1C[C@H]2[C@@H]([C@H]1C(=O)NC(CC1CCC1)C(=O)C(N)=O)C2(C)C)C1Cc2ccccc2C1)C(C)(C)C (stereo partly specified)	µM	0.009
C#CCCC(NC(=O)[C@@H]1[C@@H]2[C@H](CN1C(=O)[C@@H](NC(=O)N[C@H](COC(=O)NC(C)C)C(C)(C)C)C1(C)CCCCC1)C2(C)C)C(=O)C(=O)NCC=C (stereo partly specified)	µM	0.008
CC(C)(C)OCC1(NC(=O)N[C@H](C(=O)N2C[C@H]3[C@@H]([C@H]2C(=O)NC(CC2CCC2)C(=O)C(N)=O)C3(C)C)C2(C)CCCCC2)CCCCC1 (stereo partly specified)	µM	0.12
C#CCCC(NC(=O)[C@@H]1[C@@H]2[C@H](CN1C(=O)[C@@H](NC(=O)N[C@H](COC(=O)NCC1CCCCC1)C(C)(C)C)C1(C)CCCCC1)C2(C)C)C(=O)C(=O)NCC=C (stereo partly specified)	µM	0.02
COC[C@@H](NC(=O)N[C@H](C(=O)N1C[C@H]2[C@@H]([C@H]1C(=O)NC(CC1CCC1)C(=O)C(N)=O)C2(C)C)C(C)(C)C)C(C)(C)C (stereo partly specified)	µM	0.12
C=CCNC(=O)C(=O)C(CCC)NC(=O)[C@@H]1[C@@H]2[C@H](CN1C(=O)[C@@H](NC(=O)N[C@H](COC(=O)NC(C)C)C(C)(C)C)C1(C)CCCCC1)C2(C)C (stereo partly specified)	µM	0.024
CC(C)(C)NC(=O)OC[C@@H](NC(=O)N[C@H](C(=O)N1C[C@H]2[C@@H]([C@H]1C(=O)NC(CC1CCC1)C(=O)C(N)=O)C2(C)C)C1Cc2ccccc2C1)C(C)(C)C (stereo partly specified)	µM	0.012
C#CCCC(NC(=O)[C@@H]1[C@@H]2[C@H](CN1C(=O)[C@@H](NC(=O)N[C@H](COC(=O)NCC)C(C)(C)C)C1(C)CCCCC1)C2(C)C)C(=O)C(=O)NCC=C (stereo partly specified)	µM	0.009
C#CCCC(NC(=O)[C@@H]1[C@@H]2[C@H](CN1C(=O)[C@@H](NC(=O)N[C@H](COC(=O)NCC)C(C)(C)C)C1Cc3ccccc3C1)C2(C)C)C(=O)C(=O)NCC=C (stereo partly specified)	µM	0.01

###

experiment: Binding affinity to HCV NS3 protease by spectrophotometry; parameters: species or system Hepacivirus hominis
The label is YES for Ki below 20 nM and NO for Ki equal to or exceeding 20 nM.

COMPOUND	CATEGORY_LABEL
C=CCNC(=O)C(=O)C(CCC)NC(=O)[C@@H]1[C@@H]2[C@H](CN1C(=O)[C@@H](NC(=O)N[C@H](COC(=O)NCC)C(C)(C)C)C1(C)CCCCC1)C2(C)C (stereo not given in full)	NO
C#CCCC(NC(=O)[C@@H]1[C@@H]2[C@H](CN1C(=O)[C@@H](NC(=O)N[C@H](COC(=O)NCC)C(C)(C)C)C1(C)CCCCC1)C2(C)C)C(=O)C(=O)NCC (stereo not given in full)	NO
COC[C@@H](NC(=O)N[C@H](C(=O)N1C[C@H]2[C@@H]([C@H]1C(=O)NC(CC1CCC1)C(=O)C(N)=O)C2(C)C)C1(C)CCCCC1)C(C)C (stereo not given in full)	YES
C=CCNC(=O)C(=O)C(CC1CC1)NC(=O)[C@@H]1[C@@H]2[C@H](CN1C(=O)[C@@H](NC(=O)N[C@H](COC(=O)NCC)C(C)(C)C)C1Cc3ccccc3C1)C2(C)C (stereo not given in full)	NO
C#CCCC(NC(=O)[C@@H]1[C@@H]2[C@H](CN1C(=O)[C@@H](NC(=O)N[C@H](COC(=O)NCC)C1CCCCC1)C1(C)CCCCC1)C2(C)C)C(=O)C(=O)NCC=C (stereo not given in full)	YES
